# SYSTEM_UNDER_TEST: MELK (Homo sapiens)
# Sequence (Q14680 whole entry, looked up): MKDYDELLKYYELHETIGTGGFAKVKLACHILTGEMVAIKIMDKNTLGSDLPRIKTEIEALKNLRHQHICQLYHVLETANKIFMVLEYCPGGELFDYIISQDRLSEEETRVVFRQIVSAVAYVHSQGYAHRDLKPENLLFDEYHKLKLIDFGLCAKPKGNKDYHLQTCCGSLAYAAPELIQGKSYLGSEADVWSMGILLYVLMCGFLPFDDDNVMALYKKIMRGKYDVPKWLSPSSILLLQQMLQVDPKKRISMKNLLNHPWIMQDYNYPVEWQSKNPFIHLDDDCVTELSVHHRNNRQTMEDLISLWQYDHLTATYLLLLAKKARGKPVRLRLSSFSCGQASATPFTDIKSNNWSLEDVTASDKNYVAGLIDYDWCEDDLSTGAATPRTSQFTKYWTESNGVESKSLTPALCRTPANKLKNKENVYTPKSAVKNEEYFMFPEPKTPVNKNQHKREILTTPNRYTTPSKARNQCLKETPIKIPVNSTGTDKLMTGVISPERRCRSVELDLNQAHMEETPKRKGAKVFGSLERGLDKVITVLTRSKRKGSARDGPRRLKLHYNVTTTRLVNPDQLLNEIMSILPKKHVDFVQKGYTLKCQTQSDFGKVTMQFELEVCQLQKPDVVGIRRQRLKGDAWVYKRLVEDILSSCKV
# TEST_SUMMARY: Kinase assay (IMAP fluorescence polarization, FITC-labeled histone H3 peptide)
# Format: biochemical
# MEASUREMENT_SETUP: 50 micro-M ATP
Counter-ions that a name gives are not always drawn.
Entries annotated with measured IC50
Express it in µM; write the number only.

Reported IC50, compound COc1ccc(-c2ccc3ncc(C(C)=O)c(N[C@H]4CC[C@H](CN(C)C)CC4)c3n2)cc1 [Example 84, dihydrochloride] : ____
0.031

For CC(=O)c1cnc2ccc(-c3cc(F)c(O)c(Cl)c3)nc2c1N[C@H]1CC[C@H](NC(=O)C(C)N)CC1 (stereo partly drawn) [Example 74, dihydrochloride] , what is its reported IC50?
0.0026

Can you look up the measured IC50 of CC(=O)c1cnc2ccc(-c3cc(Cl)c(O)c(Cl)c3)nc2c1N[C@H]1CC[C@H](CN(C)CCO)CC1 [Example 48, dihydrochloride] for me?
0.0006
